# measurementTarget: FITC-labeled ACE2(775–790) peptide, pTyr781 (human)
# testName: fluorescence polarisation
assayEndpoint: Kd

Note down Kd recorded for GABARAP ATG8 (2-115) (from UniProt O95166 2-115) (domain or fragment)
> 100 µM

###

# measurementTarget: FITC-labeled ACE2(775–790) peptide, unphosphorylated (human)
# testName: fluorescence polarisation
assayEndpoint: Kd

Note down Kd recorded for GABARAP ATG8 (2-115) (from UniProt O95166 2-115) (domain or fragment)
> 100 µM

###

# measurementTarget: FITC-labeled ACE2(775–790) peptide, pSer783 (human)
# testName: fluorescence polarisation
assayEndpoint: Kd

Note down Kd recorded for GABARAP ATG8 (2-115) (from UniProt O95166 2-115) (domain or fragment)
> 100 µM
